# System Tested: human C5aR(CD88) (Homo sapiens, UniProt P21730)
# Construct: expressed in transfected cells; host or cells: rat basophilic leukemia cells (RBL)
# Sequence (P21730 whole entry): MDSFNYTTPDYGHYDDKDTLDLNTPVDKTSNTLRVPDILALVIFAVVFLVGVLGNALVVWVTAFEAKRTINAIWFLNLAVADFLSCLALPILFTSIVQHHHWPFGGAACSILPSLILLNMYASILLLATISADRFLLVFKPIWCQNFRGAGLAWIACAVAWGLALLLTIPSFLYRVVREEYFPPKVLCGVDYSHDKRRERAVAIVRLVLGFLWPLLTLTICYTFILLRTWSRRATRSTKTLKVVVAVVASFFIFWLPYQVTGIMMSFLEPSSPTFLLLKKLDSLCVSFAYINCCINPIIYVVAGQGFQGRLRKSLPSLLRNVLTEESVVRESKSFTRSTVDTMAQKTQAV
# Measurement Protocol: Determination of the IC50 value in an enzyme release assay (functional assay, antagonistic activity)
# Type: cell-based
# Measurement Parameters: antagonistic activity; IC50 group in enzyme release assay, RBL cells expressing human C5aR(CD88); read-out: activity (group)
Starred links: 1 amine or outer side, 2 acyl side, 3 side chain; linkers in the order of their positions; H or OH if unused. Positions of bridges follow the written chain, without caps; N, C: chain ends. Non-standard residues stand in square brackets, D forms with d. Residues, ends and D or L forms follow the SMILES beside them. *: point of attachment. X2 = O=C([C@H](CCCN(C1=NCCN1)C1=NCCN1)N[*:1])[*:2]; Phe(2,4-Cl2) = N[C@@H](Cc1ccc(Cl)cc1Cl)C(=O)O; Phe(3-Cl) = N[C@@H](Cc1cccc(Cl)c1)C(=O)O; Phe(4-F) = N[C@@H](Cc1ccc(F)cc1)C(=O)O; His(τ-Me) = Cn1cnc(C[C@H](N)C(=O)O)c1; Bta = N[C@@H](Cc1csc2ccccc12)C(=O)O; Hyp = O=C(O)[C@@H]1C[C@@H](O)CN1; d(hLeu) = CC(C)CC[C@@H](N)C(=O)O; Cha = N[C@@H](CC1CCCCC1)C(=O)O; Cit = NC(=O)NCCC[C@H](N)C(=O)O; dCha = N[C@H](CC1CCCCC1)C(=O)O; NHPhenethyl = c1ccc(CCN*)cc1; NMeS = CN[C@@H](CO)C(=O)O; Orn = NCCC[C@H](N)C(=O)O; Aze = O=C(O)[C@@H]1CCN1
Endpoint Label: IC50

Please list IC50 recorded for the compound CC(=O)N[C@@H](Cc1ccccc1)C(=O)N[C@@H](CCCN)C(=O)N1CC[C@H]1C(=O)N[C@H](CC1CCCCC1)C(=O)N[C@@H](Cc1cccc(Cl)c1)C(=O)N[C@@H](Cc1ccccc1)C(N)=O [Compound 100, Ac-Phe-Orn-Aze-cha-Mcf-Phe-NH2] (Ac-F[Orn][Aze][dCha][Phe(3-Cl)]F-NH2)
50 to 200 nM

Please list IC50 recorded for the compound CC(=O)N[C@@H](Cc1ccccc1)C(=O)N[C@@H](Cc1c[nH]c2ccccc12)C(=O)N1CCC[C@H]1C(=O)N[C@H](CC1CCCCC1)C(=O)N[C@@H](Cc1csc2ccccc12)C(=O)N[C@@H](Cc1ccccc1)C(N)=O [Compound 113, Ac-Phe-Trp-Pro-cha-Bta-Phe-NH2] (Ac-FWP[dCha][Bta]F-NH2)
50 to 200 nM

Please list IC50 recorded for the compound N[C@@H](Cc1ccccc1)C(=O)N[C@H]1CCCNC(=O)[C@H](Cc2ccccc2)NC(=O)[C@H](Cc2ccc(F)cc2)NC(=O)[C@@H](CC2CCCCC2)NC(=O)[C@@H]2CCCN2C1=O [Compound 375, H-Phe-[Orn-Pro-cha-Pff-Phe]] (H-F[Orn]P[dCha][Phe(4-F)]F; lactam 2-C)
50 to 200 nM

Please list IC50 recorded for the compound CC(=O)N[C@@H](Cc1ccccc1)C(=O)N[C@@H](CCCN)C(=O)N(C)[C@@H](CO)C(=O)N[C@H](CC1CCCCC1)C(=O)N[C@@H](Cc1csc2ccccc12)C(=O)N[C@@H](Cc1ccccc1)C(N)=O [Compound 247, Ac-Phe-Orn-NMS-cha-Bta-Phe-NH2] (Ac-F[Orn][NMeS][dCha][Bta]F-NH2)
50 to 200 nM

Please list IC50 recorded for the compound CC(=O)N[C@@H](Cc1ccccc1)C(=O)N[C@@H](CCCN)C(=O)N1CCC[C@H]1C(=O)N[C@H](CCC(C)C)C(=O)N[C@@H](Cc1ccc(F)cc1)C(=O)N[C@@H](Cc1ccc(F)cc1)C(N)=O [Compound 301, Ac-Phe-Orn-Pro-hle-Pff-Pff-NH2] (Ac-F[Orn]P[d(hLeu)][Phe(4-F)][Phe(4-F)]-NH2)
50 to 200 nM

Please list IC50 recorded for the compound CC(C)CC[C@H]1NC(=O)[C@@H]2C[C@@H](O)CN2C(=O)[C@@H](NC(=O)[C@@H](N)Cc2ccccc2)CCCNC(=O)[C@H](Cc2ccccc2)NC(=O)[C@H](Cc2ccc(F)cc2)NC1=O [Compound 366, H-Phe-[Orn-Hyp-hle-Pff-Phe]] (H-F[Orn][Hyp][d(hLeu)][Phe(4-F)]F; lactam 2-C)
50 to 200 nM

Please list IC50 recorded for the compound CC(=O)N[C@@H](Cc1ccccc1)C(=O)N[C@H]1CCCNC(=O)[C@H](Cc2cn(C)cn2)NC(=O)[C@H](Cc2c[nH]c3ccccc23)NC(=O)[C@@H](CC2CCCCC2)NC(=O)[C@@H]2CCCN2C1=O [Compound 20, Ac-Phe-[Orn-Pro-cha-Trp-Ecr]] (Ac-F[Orn]P[dCha]W[His(τ-Me)]; lactam 2-C)
50 to 200 nM

Please list IC50 recorded for the compound CC(=O)N[C@@H](Cc1ccccc1)C(=O)N[C@H]1CCCNC(=O)[C@H](Cc2cn(C)cn2)NC(=O)[C@H](Cc2c[nH]c3ccccc23)NC(=O)[C@@H](CC2CCCCC2)NC(=O)[C@@H]2CCCN2C1=O [Compound 192, Ac-Phe-[Orn-Pro-cha-Trp-Ecr]] (Ac-F[Orn]P[dCha]W[His(τ-Me)]; lactam 2-C)
20 to 50 nM

Please list IC50 recorded for the compound CC(=O)N[C@@H](Cc1ccccc1)C(=O)N[C@@H](CCCCN)C(=O)N[C@@H](C)C(=O)N[C@@H](CC1CCCCC1)C(=O)N[C@@H](C)C(=O)N[C@@H](CC(C)C)C(=O)N[C@H](C)C(=O)N[C@@H](Cc1ccc(O)cc1)C(=O)O [compound 60] (Ac-FKA[Cha]AL[dA]Y-OH)
200 to 2000 nM

Please list IC50 recorded for the compound CC(=O)N[C@@H](Cc1ccccc1)C(=O)N[C@@H](CCCN)C(=O)N1CC[C@H]1C(=O)N[C@H](CC1CCCCC1)C(=O)N[C@@H](Cc1csc2ccccc12)C(=O)NCCc1ccccc1 [Compound 73, Ac-Phe-Orn-Aze-cha-Bta-NH—CH2—CH2-Ph] (Ac-F[Orn][Aze][dCha][Bta]-NHPhenethyl)
200 to 2000 nM

Please list IC50 recorded for the compound CC(=O)N[C@@H](Cc1ccccc1)C(=O)N[C@@H](CCCN(C1=NCCN1)C1=NCCN1)C(=O)N1CC[C@H]1C(=O)N[C@H](CC1CCCCC1)C(=O)N[C@@H](Cc1csc2ccccc12)C(=O)N[C@@H](Cc1ccccc1)C(N)=O [Compound 223, Ac-Phe-Fcp-Aze-cha-Bta-Phe-NH2] (Ac-F[X2][Aze][dCha][Bta]F-NH2)
20 to 50 nM

Please list IC50 recorded for the compound CC(=O)N[C@@H](Cc1ccccc1)C(=O)N[C@@H](CCCNC(N)=O)C(=O)N1CCC[C@H]1C(=O)N[C@H](CCC(C)C)C(=O)N[C@@H](Cc1csc2ccccc12)C(=O)N[C@@H](Cc1ccccc1)C(N)=O [Compound 211, Ac-Phe-Cit-Pro-hle-Bta-Phe-NH2] (Ac-F[Cit]P[d(hLeu)][Bta]F-NH2)
20 to 50 nM

Please list IC50 recorded for the compound CC(=O)N[C@@H](Cc1ccccc1)C(=O)N[C@@H](CCCN)C(=O)N1CCC[C@H]1C(=O)N[C@H](CCC(C)C)C(=O)N[C@@H](Cc1ccc(Cl)cc1Cl)C(=O)N[C@@H](Cc1ccccc1)C(N)=O [Compound 286, Ac-Phe-Orn-Pro-hle-Egy-Phe-NH2] (Ac-F[Orn]P[d(hLeu)][Phe(2,4-Cl2)]F-NH2)
50 to 200 nM

###

Please provide measured IC50 for the entries that follow.
# System Tested: human C5aR(CD88) (Homo sapiens)
# Construct: expressed in transfected cells; host or cells: rat basophilic leukemia cells (RBL)
# Measurement Protocol: Determination of the IC50 value in an enzyme release assay (functional assay, antagonistic activity)
# Type: cell-based
# Measurement Parameters: antagonistic activity; IC50 group in enzyme release assay, RBL cells expressing human C5aR(CD88); read-out: activity (group)
Positions of bridges follow the written chain, without caps; N, C: chain ends. Non-standard residues stand in square brackets, D forms with d. Residues, ends and D or L forms follow the SMILES beside them. Bta = N[C@@H](Cc1csc2ccccc12)C(=O)O; cisHyp = O=C(O)[C@@H]1C[C@H](O)CN1; NMeF = CN[C@@H](Cc1ccccc1)C(=O)O; dCha = N[C@H](CC1CCCCC1)C(=O)O; Nle = CCCC[C@H](N)C(=O)O; Orn = NCCC[C@H](N)C(=O)O; Aze = O=C(O)[C@@H]1CCN1

Please list IC50 recorded for the compound CC(=O)N[C@@H](CCCN)C(=O)N[C@@H](Cc1ccccc1)C(=O)N[C@@H](CCCN)C(=O)N1CC[C@H]1C(=O)N[C@H](CC1CCCCC1)C(=O)N[C@@H](Cc1csc2ccccc12)C(=O)N[C@@H](Cc1ccccc1)C(N)=O [Compound 168, Ac-Orn-Phe-Orn-Aze-cha-Bta-Phe-NH2] (Ac-[Orn]F[Orn][Aze][dCha][Bta]F-NH2)
50 to 200 nM

Please list IC50 recorded for the compound CC(=O)N(C)[C@@H](Cc1ccccc1)C(=O)N[C@@H](CCCN)C(=O)N1CCC[C@H]1C(=O)N[C@H](CC1CCCCC1)C(=O)N[C@@H](Cc1csc2ccccc12)C(=O)N[C@@H](Cc1ccccc1)C(N)=O [Compound 165, Ac-NMF-Orn-Pro-cha-Bta-Phe-NH2] (Ac-[NMeF][Orn]P[dCha][Bta]F-NH2)
50 to 200 nM

Please list IC50 recorded for the compound CCCC[C@@H]1NC(=O)[C@H](Cc2c[nH]c3ccccc23)NC(=O)[C@@H](CC2CCCCC2)NC(=O)[C@@H]2C[C@H](O)CN2C(=O)[C@@H](NC(=O)[C@H](Cc2ccccc2)NC(C)=O)CCCNC1=O [Compound 175, Ac-Phe-[Orn-Chy-cha-Trp-Nle]] (Ac-F[Orn][cisHyp][dCha]W[Nle]; lactam 2-C)
50 to 200 nM
